TARGET DESC: VAV1 (Homo sapiens, UniProt P15498+Q96SW2)
Construct: A heterozygous VAV1 C-terminal HiBiT knock-in pool was generated at Monte Rosa Therapeutics from a clonal Jurkat cell; endogenous in cells; host or cells: Jurkat clone stably expressing LgBiT, homozygous GSPT1-G575N; heterozygous VAV1-HiBiT knock-in pool
ASSAY COMMENT: VAV1 degradation activity, VAV1-HiBiT knock-in Jurkat luminescence assay (Example A, Table 1)
Assay type: cell-based
PARTICULARS: Jurkat, VAV1-HiBiT knock-in Jurkat cells, luminescence read at 6 and 24 hours; read-out: VAV1 Dmax %, class
METRIC: Dmax

INSERT INTO assay_data (compound, reported_result) VALUES
  ('CC1(C)COC(=O)N1c1ccc(-c2cccc(C3CCC(=O)NC3=O)c2Cl)cc1 (stereo not drawn) [Compound 415]', '> 90%'),
  ('O=C1CC[C@@H](c2cccc(-c3ccc(Cn4ccccc4=O)cc3)c2Cl)C(=O)N1 [Compound 202]', '> 90%'),
  ('CC(c1ccc(-c2cccc(C3CCC(=O)NC3=O)c2Cl)cc1)n1ccccc1=O (stereo not drawn) [Compound 174]', '> 90%'),
  ('N#Cc1ccc(-c2cccc(C3CCC(=O)NC3=O)c2Cl)cc1N (stereo not drawn) [Compound 133]', '60 to 90%'),
  ('O=C1CCC(c2cccc(-c3ccc(-c4cccn(CC(F)(F)F)c4=O)cc3)c2Cl)C(=O)N1 (stereo not drawn) [Compound 458]', '> 90%'),
  ('O=C1CCC(c2cccc(-c3ccc(N4CCCCC4C(F)(F)F)cc3)c2Cl)C(=O)N1 (stereo not drawn) [Compound 476]', '60 to 90%'),
  ('Cc1c(-c2ccc(Cn3ccccc3=O)cc2)cccc1C1CCC(=O)NC1=O (stereo not drawn) [Compound 243]', '< 60%'),
  ('COC1CCCC(=O)N1Cc1ccc(-c2cccc(C3CCC(=O)NC3=O)c2Cl)cc1 (stereo not drawn) [Compound 271]', '60 to 90%'),
  ('C[C@@H]1COCC(=O)N1c1ccc(-c2cccc(C3CCC(=O)NC3=O)c2Cl)cc1 (stereo partly drawn) [Compound 441]', '> 90%'),
  ('O=C1CCC(c2cccc(-c3ccc4c(c3)CC(=O)N4Cc3cccnn3)c2Cl)C(=O)N1 (stereo not drawn) [Compound 395]', '60 to 90%');

Ask: Lookup: Dmax / VAV1 (Homo sapiens, UniProt P15498+Q96SW2) / O=C1CCC(c2cccc(-c3ccc(CN4CCOCC4=O)cc3)c2Cl)C(=O)N1 (stereo not drawn) [Compound 302]
Result: 60 to 90%

Ask: CC1(C)CCCC(=O)N1c1ccc(-c2cccc(C3CCC(=O)NC3=O)c2Cl)cc1 (stereo not drawn) [Compound 403] , same question.
Result: > 90%

Ask: O=C1CCC(c2cccc(-c3ccc(N4C(=O)CC5CC54)cc3)c2Cl)C(=O)N1 (stereo not drawn) [Compound 478] , same question.
Result: 60 to 90%

====

TARGET DESC: VAV1 (Homo sapiens, UniProt P15498+Q96SW2)
Construct: A heterozygous VAV1 C-terminal HiBiT knock-in pool was generated at Monte Rosa Therapeutics from a clonal Jurkat cell; endogenous in cells; host or cells: Jurkat clone stably expressing LgBiT, homozygous GSPT1-G575N; heterozygous VAV1-HiBiT knock-in pool
ASSAY COMMENT: VAV1 degradation activity, VAV1-HiBiT knock-in Jurkat luminescence assay (Example A, Table 1)
Format: cell-based
PARTICULARS: Jurkat, VAV1-HiBiT knock-in Jurkat cells, luminescence read at 6 and 24 hours after compound addition; read-out: VAV1 Dmax %
Values of Dmax strictly less than 90% map to Y, and values of at least 90% map to N.

INSERT INTO measurements (molecule, target_desc, group_label) VALUES
  ('Cn1ccc(Cn2ncc3cc(-c4cccc(C5CCC(=O)NC5=O)c4Cl)ccc32)n1 (centres unmarked)', 'VAV1 (Homo sapiens, UniProt P15498+Q96SW2)', 'N'),
  ('O=C1CCC(c2cccc(-c3cnc4c(c3)OCCN4)c2Cl)C(=O)N1 (centres unmarked)', 'VAV1 (Homo sapiens, UniProt P15498+Q96SW2)', 'Y');

Please find the next molecule below.
Ask: I wonder whether O=C1CCC(c2cccc(-c3ccc4c(c3)OCCN4)c2Cl)C(=O)N1 (centres unmarked) has Dmax below 90%. Can you tell?
Result: Y

====

TARGET DESC: VAV1 (Homo sapiens, UniProt P15498+Q96SW2)
Construct: A heterozygous VAV1 C-terminal HiBiT knock-in pool was generated at Monte Rosa Therapeutics from a clonal Jurkat cell; endogenous in cells; host or cells: Jurkat clone stably expressing LgBiT, homozygous GSPT1-G575N; heterozygous VAV1-HiBiT knock-in pool
ASSAY COMMENT: VAV1 degradation activity, VAV1-HiBiT knock-in Jurkat luminescence assay (Example A, Table 1)
Type: cell-based
PARTICULARS: Jurkat, VAV1-HiBiT knock-in Jurkat cells, luminescence read at 6 and 24 hours after compound addition; read-out: VAV1 Dmax %
METRIC: Dmax (%)
Give a bare numeral; the unit % is implied.

Observe how each entry below is paired with its result.
INSERT INTO measurements (compound, metric, reported_result) VALUES
  ('O=C1CCC(c2cccc(-c3ccc4c(c3)CC(=O)N4CC3CC3)c2Cl)C(=O)N1 (centres unmarked)', 'Dmax', 63.7),
  ('Cn1ccc(Cn2ccc3cc(-c4cccc(C5CCC(=O)NC5=O)c4Cl)ccc32)n1 (centres unmarked)', 'Dmax', 97.9),
  ('O=C1CCC(c2cccc(-c3ccc4c(c3)CCN4)c2Cl)C(=O)N1 (centres unmarked)', 'Dmax', 74.5),
  ('CC1(C)Cc2cc(-c3cccc(C4CCC(=O)NC4=O)c3Cl)ccc2N1 (centres unmarked)', 'Dmax', 95.8);

Now consider the entry below.
Ask: Using the record for Cn1cccc(N2CCc3cc(-c4cccc(C5CCC(=O)NC5=O)c4Cl)ccc32)c1=O (centres unmarked) , report its Dmax.
Result: 97.8

====

TARGET DESC: VAV1 (Homo sapiens, UniProt P15498+Q96SW2)
Construct: A heterozygous VAV1 C-terminal HiBiT knock-in pool was generated at Monte Rosa Therapeutics from a clonal Jurkat cell; endogenous in cells; host or cells: Jurkat clone stably expressing LgBiT, homozygous GSPT1-G575N; heterozygous VAV1-HiBiT knock-in pool
ASSAY COMMENT: VAV1 degradation activity, VAV1-HiBiT knock-in Jurkat luminescence assay (Example A, Table 1)
Type: cell-based
PARTICULARS: Jurkat, VAV1-HiBiT knock-in Jurkat cells, luminescence read at 6 and 24 hours; read-out: VAV1 Dmax %
Dmax values by entry
Give a bare numeral; the unit % is implied.

Observe how each entry below is paired with its result.
INSERT INTO assay_data (compound, target_desc, output_unit, reported_result) VALUES
  ('CC1CN(Cc2ccc(-c3cccc(C4CCC(=O)NC4=O)c3Cl)cc2)C(=O)C(C)O1 (stereo not drawn) [Compound 267]', 'VAV1 (Homo sapiens, UniProt P15498+Q96SW2)', '%', 96.4),
  ('O=C1CCC(c2cccc(-c3ccc(Cc4cccnc4)cc3)c2Cl)C(=O)N1 (stereo not drawn) [Compound 374]', 'VAV1 (Homo sapiens, UniProt P15498+Q96SW2)', '%', 97.4);

Now consider the entry below.
Ask: Lookup: Dmax / VAV1 (Homo sapiens, UniProt P15498+Q96SW2) / O=C1CCC(c2cccc(-c3ccc(N4C(=O)COCC45CC5)cc3)c2Cl)C(=O)N1 (stereo not drawn) [Compound 324]
Result: 97.8

====

TARGET DESC: VAV1 (Homo sapiens, UniProt P15498+Q96SW2)
Construct: A heterozygous VAV1 C-terminal HiBiT knock-in pool was generated at Monte Rosa Therapeutics from a clonal Jurkat cell; endogenous in cells; host or cells: Jurkat clone stably expressing LgBiT, homozygous GSPT1-G575N; heterozygous VAV1-HiBiT knock-in pool
ASSAY COMMENT: VAV1 degradation activity, VAV1-HiBiT knock-in Jurkat luminescence assay (Example A, Table 1)
Type: cell-based
PARTICULARS: VAV1-HiBiT knock-in Jurkat cells, luminescence read at 6 and 24 hours; read-out: VAV1 DC50 (nM), class
DC50 values by entry

INSERT INTO assay_data (molecule, metric, reported_result) VALUES
  ('O=C1CCC(c2cccc(-c3ccc(N4CCC4)cc3)c2Cl)C(=O)N1 (centres unmarked) [Compound 195]', 'DC50', '100 to 1000 nM'),
  ('Cc1nn(C)c2c1N(c1ccc(-c3cccc(C4CCC(=O)NC4=O)c3Cl)cc1)C(=O)CO2 (centres unmarked) [Compound 333]', 'DC50', '≤ 100 nM'),
  ('O=C1CCC(c2cccc(-c3ccc(CN4CC5(F)CC(C5)C4=O)cc3)c2Cl)C(=O)N1 (centres unmarked) [Compound 269]', 'DC50', '≤ 100 nM');

Ask: Using the record for CN1CCCN(Cc2ccc(-c3cccc(C4CCC(=O)NC4=O)c3Cl)cc2)C1=O (centres unmarked) [Compound 424] , report its DC50.
Result: ≤ 100 nM

Ask: O=C1CCC(c2cccc(-c3ccc(CN4CCn5cncc5C4=O)cc3)c2Cl)C(=O)N1 (centres unmarked) [Compound 273] , same question.
Result: 100 to 1000 nM

Ask: O=C1CC[C@H](c2cccc(-c3ccc(Cn4ccccc4=O)cc3)c2Cl)C(=O)N1 [Compound 201] , same question.
Result: 100 to 1000 nM

Ask: O=C1CCC(c2cccc(-c3ccc(CC(=O)N4CCCC4)cc3)c2Cl)C(=O)N1 (centres unmarked) [Compound 235] , same question.
Result: ≤ 100 nM

Ask: CC1CCC(=O)N(Cc2ccc(-c3cccc(C4CCC(=O)NC4=O)c3Cl)cc2)C1 (centres unmarked) [Compound 288] , same question.
Result: ≤ 100 nM

Ask: O=C1CCC(c2cccc(-c3ccc(N4CCN5CCCC5C4=O)cc3)c2Cl)C(=O)N1 (centres unmarked) [Compound 308] , same question.
Result: ≤ 100 nM

Ask: O=C1CCC(c2cccc(-c3ccc(-n4ccccc4=O)c(F)c3)c2Cl)C(=O)N1 (centres unmarked) [Compound 470] , same question.
Result: ≤ 100 nM

Ask: Cc1nccn1Cc1ccc(-c2cccc(C3CCC(=O)NC3=O)c2Cl)cc1 (centres unmarked) [Compound 111] , same question.
Result: ≤ 100 nM

Ask: O=C1CCC(c2c(F)ccc(-c3ccc(Cn4ccccc4=O)cc3)c2Cl)C(=O)N1 (centres unmarked) [Compound 143] , same question.
Result: > 1000 nM

Ask: O=C1CCC(c2cccc(-c3ccc(N4CCn5ccnc5C4=O)cc3)c2Cl)C(=O)N1 (centres unmarked) [Compound 309] , same question.
Result: ≤ 100 nM
